Experiment: Binding constants of flavorants, microcalorimetric method and GC flavorant retention
Source text: The tested compounds included those that are generally soluble or miscible in water. The complexes with the cyclodextrins were formed using methods corresponding to the two specifically described examples below involving apricot flavorant and banana flavorant. Two types of methods were used to determine the apparent binding constants noted above. […]
Reported Property: Calculated Binding Constants, complex formed with alpha-cyclodextrin (M⁻¹)

Some molecules with recorded Calculated Binding Constants, complex formed with alpha-cyclodextrin:
{"Molecule": "CCCCOC(C)=O [Butyl acetate]", "Assay Result": 72}
{"Molecule": "Cc1occc(=O)c1O [maltol]", "Assay Result": 70}
{"Molecule": "CCOC(C)=O [Ethyl acetate]", "Assay Result": 60}
{"Molecule": "CCCCOC(=O)CC(C)C [butyl isovalerate]", "Assay Result": 95}

I = CCCCCOC(C)=O [Amyl acetate]
II = C=CCOC(=O)CCC [allyl butyrate]
Compare I and II by numeric Calculated Binding Constants, complex formed with alpha-cyclodextrin and name the larger one. Kindly give the label for the entry you pick.
I
(I: 85 M⁻¹, II: 45 M⁻¹)

###

assay: Binding constants of flavorants, microcalorimetric method and GC flavorant retention
Reported Property: Calculated Binding Constants, complex formed with beta-cyclodextrin (M⁻¹)

Some compounds with recorded Calculated Binding Constants, complex formed with beta-cyclodextrin:
{"Compound": "CCCCOC(C)=O [Butyl acetate]", "Assay Result": 85}
{"Compound": "Cc1occc(=O)c1O [maltol]", "Assay Result": 98}
{"Compound": "CCCCC(=O)OCC [ethyl valerate]", "Assay Result": 80}
{"Compound": "C=CCOC(=O)CCC [allyl butyrate]", "Assay Result": 34}
{"Compound": "CCCCCOC(=O)CCCC [amyl valerate]", "Assay Result": 45}
{"Compound": "CCOC(C)=O [Ethyl acetate]", "Assay Result": 100}

1 = CCCCCOC(C)=O [Amyl acetate]
2 = CCCCOC(=O)CC(C)C [butyl isovalerate]
Compare 1 and 2 by numeric Calculated Binding Constants, complex formed with beta-cyclodextrin and name the larger one. Kindly give the label for the entry you pick.
2
(2: 110 M⁻¹, 1: 40 M⁻¹)
